Biological target: hCCR8 SNAP-tag (human, UniProt P51685 1-355, SNAP-tag labelled with Lumi4-Terbium)
Assay: cell-based or functional assay
The entries below come with measured % of internalization at 10 µg/ml (CCL1 at 300 nM = 100%), HTRF values attached.
Report the value in % with no unit label.

binder: humanized anti-CCR8 mAb 2-15 (antibody, human IgG1, kappa, V domains shown, Humanized, human IgG1 / kappa) VH: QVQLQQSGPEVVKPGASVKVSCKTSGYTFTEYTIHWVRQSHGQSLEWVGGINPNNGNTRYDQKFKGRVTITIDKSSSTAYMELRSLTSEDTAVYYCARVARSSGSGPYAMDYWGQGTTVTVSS VL: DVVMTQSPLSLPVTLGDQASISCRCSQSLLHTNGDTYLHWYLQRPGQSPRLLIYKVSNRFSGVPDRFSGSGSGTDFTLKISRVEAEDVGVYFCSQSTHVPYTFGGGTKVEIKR
result-units: %
observed-measurement: 36
//
binder: humanized anti-CCR8 mAb 2-14 (antibody, human IgG1, kappa, V domains shown, Humanized, human IgG1 / kappa) VH: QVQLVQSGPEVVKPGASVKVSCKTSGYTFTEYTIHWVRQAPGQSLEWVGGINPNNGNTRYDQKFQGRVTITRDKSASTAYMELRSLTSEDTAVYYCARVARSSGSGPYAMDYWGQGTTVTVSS VL: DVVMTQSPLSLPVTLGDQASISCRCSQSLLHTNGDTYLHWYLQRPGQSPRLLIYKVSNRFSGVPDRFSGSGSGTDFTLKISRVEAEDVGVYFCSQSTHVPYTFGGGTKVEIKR
result-units: %
observed-measurement: 29
//
binder: Ref #4 (137-H3L2 (LM-108) of WO 2022/078277) (antibody, human IgG1, V domains shown) VH: EVQLVESGGGLVQPGGSLKLSCAASGFTFNTYAMNWVRQASGKGLEWVARIRSKANNYATYYADSVKDRFTISRDDSKNTLYLQMNNLKTEDTAVYYCVRDRSRGEDYAMDYWGQGTLVTVSS VL: DIVMTQSPLSLPVTPGEPASISCRSSKSLLHSNANTYLYWFLQKPGQSPQLLIYRMSNLASGVPDRFSGSGSGTAFTLKISRVEAEDVGVYYCMQHLEYPFTFGQGTKLEIK
result-units: %
observed-measurement: 103
//
binder: Ref #3 (Anti-CCR8-1 of US 2021/0238292 A1) (antibody, human IgG1, V domains shown) VH: QVQLVQSGAEVKKPGASVKVSCKASGYTFTSYYMHWVRQAPGQGLEWMGIINPSGGSTSYAQKFQGRVTMTRDTSTSTVYMELSSLRSEDTAVYYCARAVRNRFRFDYWGQGTLVTVSS VL: QSALTQPASVSGSPGQSITISCTGTSSDVGSYNLVSWYQQHPGKAPKLMIYEVSKRPSGVSNRFSGSKSGNTASLTISGLQAEDEADYYCSSYAGSSTFVVFGGGTKLTVL
result-units: %
observed-measurement: 90

Turning to the following binder.
Give the reported % of internalization at 10 µg/ml (CCL1 at 300 nM = 100%), HTRF for this binder. Ref #1 (TPP-21360 of WO 2021/260210) (antibody, human IgG1, V domains shown, Benchmark; variable regions cloned into vectors encoding heavy and light chains of human IgG1, produced in CHO) VH: EVQLLESGGGLVQPGGSLRLSCAASGFTFSSYGMHWVRQAPGKGLEWVSAINWNGGSTGYADSVKGRFTISRDNSKNTLYLQMNSLRAEDTAVYYCARGHHSGYDGRFFDYWGQGTLVTVSS VL: QSVLTQPPSVSGAPGQRVTISCTGSSSNIGAGYNVHWYQQLPGTAPKLLIYTNNRRPSGVPDRFSGSKSGTSASLAISGLRSEDEADYYCAAWDASLSGWVFGGGTKLTVL
111
